Molecular target: HCV NS3 protease (Hepatitis C virus genotype 1a, UniProt P27958)
Construct: more particularly HCV NS3 proteases
Sequence (P27958 1027-1208): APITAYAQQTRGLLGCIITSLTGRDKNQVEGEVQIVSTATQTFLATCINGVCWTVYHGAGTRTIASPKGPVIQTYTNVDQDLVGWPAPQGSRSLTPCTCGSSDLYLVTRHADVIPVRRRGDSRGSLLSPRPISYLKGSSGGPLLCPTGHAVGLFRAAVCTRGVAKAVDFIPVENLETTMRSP
Assay: Enzyme inhibition of HCV NS3 serine protease (cleavage of peptide substrate / EDVV AbuC-p-nitroanilide, with or without NS4A)
Type: biochemical
Settings: Enzyme inhibition data; Ki from rate vs [inhibitor] plots, Morrison tight binding competitive inhibition fit; 30 C, pH 7.8; read-out: Ki
Experimental: Cleavage reactions were quenched by the addition of an equal volume of a mixture of 10% TFA:acetonitrile (1:1) and activity was assessed on a reversed phase HPLC column (Rainin C18 Microsorb-MV, […], 4.6×250 mm; 0-50% acetonitrile, 0.1% TFA@ 3.33% min) using a Hewlett Packard 1050 instrument with auto-injection and diode array detection at 210 nm and 280 nm (where appropriate). Peptide elution fragments were collected and identified by mass spectrometry and N-terminal sequence analysis. […]
Starred links: 1 amine or outer side, 2 acyl side, 3 side chain; linkers in the order of their positions; H or OH if unused. Non-standard residues stand in square brackets, D forms with d. Residues, ends and D or L forms follow the SMILES beside them. Groups on a side chain read outwards from the residue. *: point of attachment. Pyrazinecarbonyl = O=C(c1cnccn1)*; Hyp = O=C(O)[CH]1C[CH](O)CN1; 3Abz = Nc1cccc(C(=O)O)c1; Abu = CC[CH](N)C(=O)O; CO = O=C([*:1])[*:2]; NHBn = c1ccc(CN*)cc1
attribute measured: Ki

# compound, recorded value
measured = [
    ("CCC(C=O)NC(=O)C1CC(OC(=O)NCc2ccccc2)CN1C(=O)C(NC(=O)C(NC(=O)c1cnccn1)C(C)C)C(C)C (centres unmarked) [Compound 50] (Pyrazinecarbonyl-VV[Hyp]([CO-NHBn])[Abu]-aldehyde; configuration not given here)", "1 to 100 µM"),
    ("CCOC(=O)c1cccc(NC(=O)OC2CC(C(=O)NC(C=O)CC)N(C(=O)C(NC(=O)C(NC(=O)c3cnccn3)C(C)C)C(C)C)C2)c1 (centres unmarked) [Compound 56] (Pyrazinecarbonyl-VV[Hyp]([CO-3Abz-OEt])[Abu]-aldehyde; configuration not given here)", "> 100 µM"),
]

* * *

target: HCV NS3 protease (Hepatitis C virus genotype 1a, UniProt P27958); construct: more particularly HCV NS3 proteases; experiment: Enzyme inhibition of HCV NS3 serine protease (cleavage of peptide substrate / EDVV AbuC-p-nitroanilide, with or without NS4A); format: biochemical; conditions: Enzyme inhibition data; Ki from rate vs [inhibitor] plots, Morrison tight binding competitive inhibition fit; 30 C, pH 7.8; read-out: Ki
Starred links: 1 amine or outer side, 2 acyl side, 3 side chain; linkers in the order of their positions; H or OH if unused. Non-standard residues stand in square brackets, D forms with d. Residues, ends and D or L forms follow the SMILES beside them. Groups on a side chain read outwards from the residue. ξ: configuration not given here. *: point of attachment. ξ(3-Amino-2-oxopentanoyl) = CCC(N[*:1])C(=O)C(=O)[*:2]; Bip = N[CH](Cc1ccc(-c2ccccc2)cc1)C(=O)O; Acetyl(3-pyridyl) = O=C(Cc1cccnc1)*; Pyrazinecarbonyl = O=C(c1cnccn1)*; Hyp = O=C(O)[CH]1C[CH](O)CN1; NH(3-MeOPh) = COc1cccc(N*)c1; X7 = O=C(c1ccc(Cl)c(Cl)c1)*; X4 = FC(F)(F)Oc1ccc(C*)cc1; X12 = CCC(N*)C(=O)c1nccs1; X32 = Clc1ccc(N*)c(Cl)c1; X39 = CC(=O)c1ccc(N*)cc1; Abu = CC[CH](N)C(=O)O; CO = O=C([*:1])[*:2]; Bz = O=C(c1ccccc1)*; X13 = COc1ccccc1CN*; Bn = c1ccc(C*)cc1; X37 = COCC(C)N*
Item-by-item account of Ki

# compound, target system, Ki
rows = [
    ("CCC(C=O)NC(=O)C1CC(OCc2ccccc2)CN1C(=O)C(NC(=O)c1ccccc1)C(C)C (centres unmarked) [Compound 149] (Bz-Val-[Hyp](Bn)-[Abu]-aldehyde; configuration not given here)", "HCV NS3 protease (Hepatitis C virus genotype 1a, UniProt P27958)", "1 to 100 µM"),
    ("CCC(C=O)NC(=O)C1CC(OC(=O)Nc2ccc(C(C)=O)cc2)CN1C(=O)C(NC(=O)C(NC(=O)c1cnccn1)C(C)C)C(C)C (centres unmarked) [Compound 37] (Pyrazinecarbonyl-VV[Hyp]([CO-X39])[Abu]-aldehyde; configuration not given here)", "HCV NS3 protease (Hepatitis C virus genotype 1a, UniProt P27958)", "1 to 100 µM"),
    ("CCC(C=O)NC(=O)C1CC(OCc2ccccc2)CN1C(=O)C(NC(=O)c1ccc(O)c(Cl)c1)C(C)C (centres unmarked) [Compound 156]", "HCV NS3 protease (Hepatitis C virus genotype 1a, UniProt P27958)", "1 to 100 µM"),
    ("CCC(C=O)NC(=O)C1CC(OCc2ccccc2)CN1C(=O)C(NC(=O)Cc1ccc(NC(C)=O)cc1)C(C)C (centres unmarked) [Compound 152]", "HCV NS3 protease (Hepatitis C virus genotype 1a, UniProt P27958)", "> 100 µM"),
    ("CCC(NC(=O)C(CC(C)C)NC(=O)C(NC(=O)C(NC(=O)c1cnccn1)C(C)C)C(C)C)C(=O)C(=O)Nc1ccccc1 (centres unmarked) [Compound 119]", "HCV NS3 protease (Hepatitis C virus genotype 1a, UniProt P27958)", "> 100 µM"),
    ("CCC(C=O)NC(=O)C1CC(OCc2ccccc2)CN1C(=O)C(NC(=O)C(OC)c1ccccc1)C(C)C (centres unmarked) [Compound 164]", "HCV NS3 protease (Hepatitis C virus genotype 1a, UniProt P27958)", "> 100 µM"),
    ("CCC(NC(=O)C(CC(C)C)NC(=O)C(NC(=O)C(NC(=O)C(CC(=O)O)NC(=O)C(CCC(=O)O)NC(C)=O)C(C)C)C(C)C)C(=O)C(=O)NCc1ccccc1OC (centres unmarked) [Compound 103] (Ac-EDVVL[ξ(3-Amino-2-oxopentanoyl)]-X13; configuration not given here)", "HCV NS3 protease (Hepatitis C virus genotype 1a, UniProt P27958)", "< 1 µM"),
    ("CCC(C=O)NC(=O)C1CC(OC(=O)c2ccc(Cl)c(Cl)c2)CN1C(=O)C(NC(=O)C(NC(=O)c1cnccn1)C(C)C)C(C)C (centres unmarked) [Compound 27] (Pyrazinecarbonyl-VV[Hyp](X7)[Abu]-aldehyde; configuration not given here)", "HCV NS3 protease (Hepatitis C virus genotype 1a, UniProt P27958)", "1 to 100 µM"),
    ("CCC(C=O)NC(=O)C1CC(OCc2ccccc2)CN1C(=O)C(NC(=O)c1cc2ccccc2[nH]1)C(C)C (centres unmarked) [Compound 154]", "HCV NS3 protease (Hepatitis C virus genotype 1a, UniProt P27958)", "1 to 100 µM"),
    ("CCC(C=O)NC(=O)C(CC(C)C)NC(=O)C(NC(=O)C(NC(=O)Cc1cccnc1)C(C)C)C(C)C (centres unmarked) [Compound 95] ({Acetyl(3-pyridyl)}-VVL[Abu]-aldehyde; configuration not given here)", "HCV NS3 protease (Hepatitis C virus genotype 1a, UniProt P27958)", "1 to 100 µM"),
    ("CCC(C=O)NC(=O)C1CC(OC(=O)Nc2cccc(OC)c2)CN1C(=O)C(NC(=O)C(NC(=O)c1cnccn1)C(C)C)C(C)C (centres unmarked) [Compound 42] (Pyrazinecarbonyl-VV[Hyp]([CO-NH(3-MeOPh)])[Abu]-aldehyde; configuration not given here)", "HCV NS3 protease (Hepatitis C virus genotype 1a, UniProt P27958)", "1 to 100 µM"),
    ("CCC(C=O)NC(=O)C1CC(OCc2ccccc2)CN1C(=O)C(NC(=O)C(Cc1ccc(-c2ccccc2)cc1)NC(=O)c1cnccn1)C(C)C (centres unmarked) [Compound 130] (Pyrazinecarbonyl-[Bip]V[Hyp](Bn)[Abu]-aldehyde; configuration not given here)", "HCV NS3 protease (Hepatitis C virus genotype 1a, UniProt P27958)", "> 100 µM"),
    ("CCC(C=O)NC(=O)C1CC(NC(=O)OCc2ccccc2)CN1C(=O)C(NC(=O)C(NC(=O)c1cnccn1)C(C)C)C(C)C (centres unmarked) [Compound 60]", "HCV NS3 protease (Hepatitis C virus genotype 1a, UniProt P27958)", "> 100 µM"),
    ("CCC(C=O)NC(=O)C1CC(OCc2ccc(OC(F)(F)F)cc2)CN1C(=O)C(NC(=O)C(NC(=O)c1cnccn1)C(C)C)C(C)C (centres unmarked) [Compound 18] (Pyrazinecarbonyl-VV[Hyp](X4)[Abu]-aldehyde; configuration not given here)", "HCV NS3 protease (Hepatitis C virus genotype 1a, UniProt P27958)", "1 to 100 µM"),
    ("CCC(NC(=O)C(CC(C)C)NC(=O)C(NC(=O)C(NC(=O)c1cnccn1)C(C)C)C(C)C)C(=O)C(=O)N(CC)CC (centres unmarked) [Compound 122]", "HCV NS3 protease (Hepatitis C virus genotype 1a, UniProt P27958)", "> 100 µM"),
    ("CCC(C=O)NC(=O)C1CC(OC(=O)Nc2ccc(Cl)cc2Cl)CN1C(=O)C(NC(=O)C(NC(=O)c1cnccn1)C(C)C)C(C)C (centres unmarked) [Compound 30] (Pyrazinecarbonyl-VV[Hyp]([CO-X32])[Abu]-aldehyde; configuration not given here)", "HCV NS3 protease (Hepatitis C virus genotype 1a, UniProt P27958)", "1 to 100 µM"),
    ("CCC(NC(=O)C(CC(C)C)NC(=O)C(NC(=O)C(NC(=O)C(CC(=O)O)NC(=O)C(CCC(=O)O)NC(C)=O)C(C)C)C(C)C)C(=O)C(=O)NC(C)COC (centres unmarked) [Compound 106] (Ac-EDVVL[ξ(3-Amino-2-oxopentanoyl)]-X37; configuration not given here)", "HCV NS3 protease (Hepatitis C virus genotype 1a, UniProt P27958)", "< 1 µM"),
    ("C=CCOC(=O)NC1CC(C(=O)NC(C=O)CC)N(C(=O)C(NC(=O)C(NC(=O)c2cnccn2)C(C)C)C(C)C)C1 (centres unmarked) [Compound 61]", "HCV NS3 protease (Hepatitis C virus genotype 1a, UniProt P27958)", "> 100 µM"),
    ("CCC(NC(=O)C(CC(C)C)NC(=O)C(NC(=O)C(NC(=O)C(CC(=O)O)NC(=O)C(N)CCC(=O)O)C(C)C)C(C)C)C(=O)c1nccs1 (centres unmarked) [Compound 125] (H-EDVVL-X12; configuration not given here)", "HCV NS3 protease (Hepatitis C virus genotype 1a, UniProt P27958)", "1 to 100 µM"),
    ("CCC(NC(=O)C(CC(C)C)NC(=O)C(NC(=O)C(NC(=O)c1cnccn1)C(C)C)C(C)C)C(=O)C(=O)NCCc1ccccc1 (centres unmarked) [Compound 115]", "HCV NS3 protease (Hepatitis C virus genotype 1a, UniProt P27958)", "1 to 100 µM"),
]

Hello, the source for this data is patent US7388017B2, in case you need it.
